Reference for the values: patent US20250011363A1

target: acetylcholine receptor; assay: SPR, peptide at 10 µM on acetylcholine receptor
value_kind: Binding affinity (RU)

Illustrative cases are given below, each with its answer.
RLVRK [5mer-352] | 76
RGFTR [5mer-369] | 84
RWITR [5mer-364] | 62
KVQTK [5mer-75] | 63
RGYRR [5mer-76] | 80

P: KRRYK [5mer-365]
Q: KVVTR [5mer-64]
Ask: Among P and Q , which shows a numerically higher Binding affinity (RU) result? Answer = label.
Result: Q
